SYSTEM: T1, HLA-A*02:01 (human)
T1 construct: monomers captured on streptavidin plates; also called MHC class I
ASSAY_NAME: UV peptide exchange ELISA
Could you please report measured peptide exchange yield for the items listed next?

BINDER	peptide exchange yield
KLFDVDEDGYI	50 to 75%
TLIEESAKV	20 to 50%
LLLLDTVTMQV	20 to 50%
VLVSDGVHSV	50 to 75%
SLQEQLHSV	50 to 75%

I need peptide exchange yield for every entry listed below, if you could help.
1. GLFEDVTQPGILL
2. NLIENVQRL
3. KLLPLAGLYL

1: ≥ 75%; 2: 20 to 50%; 3: ≥ 75%

Provenance of the data: patent US20170037110A1
